System: CCRF-CEM leukemia
Protocol summary: NCI-60 one-dose screen, 48 h
Condition parameters: 10 µM unless noted
The panel holds about 83,000 compounds, 20% with a hit somewhere; the sample as a whole holds those more often. Calls of active or inactive are those of the source. How the source made its calls: active means growth percent below 10; inactive means the rest.
Your response should consist of one outcome taken from 1 (active), 0 (inactive)

State the result this test recorded for "O=S(=O)(Nc1ccc(F)cc1)c1ccc(-c2cnc(C3CC3)o2)cc1" .
0

Which result was noted for this molecule in the test: CCCCCO/N=C\c1c2c(O)c3c(O)c(C)c4c(c3c1O)C(=O)C(C)(O/C=C\C(OC)C(C)C(OC(C)=O)C(C)C(O)C(C)C(O)C(C)/C=C\C=C(\C)C(=O)N2)O4 (centres undefined)
0

Name the outcome recorded for "CCNC(=O)Nc1ncccc1OCc1ccc(F)cc1" in the assay.
0

Could you check what this test reported for "O=C(/C=C/c1ccc([N+](=O)[O-])cc1)c1ccccc1" ?
0

// outcome(item) with item = "Brc1ccc(/C=C(/C2=NCCN2)n2ccc3ccccc32)cc1"
0

Hi, do you know how "COc1cc2nc3cc([N+](=O)[O-])ccc3c(NCCNCC(C)(C)O)c2cc1OC" came out in this test?
1

Hello, I am checking results. What call was entered for "CC(=O)c1nn(-c2ccccc2)/c(=N/N=Cc2cn(-c3ccccc3)nc2-c2cc3ccccc3oc2=O)s1" ?
0

Tell me the assay call for O=C(CC1(O)C(=O)Nc2ccc(Br)cc21)c1ccc(Cl)cc1 (centres undefined) please.
0

# lookup: test call for "N=c1c2c(-c3ccccc3)c(-c3ccccc3)oc2ncn1NC(=O)c1cccnc1"
0

====

System: SK-MEL-5 melanoma
Protocol summary: NCI-60 one-dose screen, 48 h (100 = growth as untreated, 0 = no growth, -100 = all killed)
Condition parameters: 10 µM unless noted
This is part of a sample that, as a whole, favours compounds with a hit. Of some 83,000 tested, about 20% had one in any assay.
Friendly reminder: growth below 80% is satisfied, at or above is not satisfied.

Given the entry N=C1/C(=C2\NC3C=CC=CC3S2)C(c2ccc(Cl)cc2)C2C(=O)N(c3ccccc3)C(=S)N12 (stereo not given) , would its reported growth be below 80%?
not satisfied

In plain terms, does "Cc1nnc(NS(=O)(=O)c2ccc(N=Nc3ccc(N)nc3N)cc2)s1" come in under 80% for growth?
not satisfied

Input "O=C(Nc1ncc(Cc2cccc(C(F)(F)F)c2)s1)c1ccc2c(c1)OCCO2" ; condition: growth strictly below 80%. Does it hold?
satisfied

Take the compound "CC(C)(C)CC(N)=O" and say whether its growth is less than 80%.
not satisfied

Threshold test, growth < 80%: "FC(F)(F)Sc1ccc(/C=C/c2cc(/C=C/c3ccc(SC(F)(F)F)cc3)n(-c3ccccc3)n2)cc1"
not satisfied

Lab note: growth threshold 80%. Does this compound come in strictly under it? "O=C1CCc2c(sc3[nH]c(=S)n(Cc4ccc(Cl)cc4)c(=O)c23)C1"
satisfied

Is 80% strictly greater than the compound's reported growth? compound: "COC(=O)c1c2c(c(C)[n+]([O-])c1C)C(=O)C(NCCN1CCOCC1)=CC2=O"
satisfied

Determine whether this compound shows growth lower than 80% (ties excluded): "COc1ccc(-c2cc(-c3cccnc3)nc3sc4c(Cl)nnnc4c23)cc1OC"
not satisfied

====

For each of the compounds below, state its growth.
Tested on: A549/ATCC NSCLC
Protocol summary: NCI-60 one-dose screen, 48 h (100 = growth as untreated, 0 = no growth, -100 = all killed)
Condition parameters: 10 µM unless noted
This is part of a sample that, as a whole, favours compounds with a hit. Of some 83,000 tested, about 20% had one in any assay.
Report the figure in % without appending any unit label.

So what does the record say about growth for CN(Cc1ccccc1)c1nc(Cl)c(C2CC(c3ccc4c(c3)OCO4)=NN2c2cc(Cl)cc(Cl)c2)s1 (centres undefined) ?
90.7

Request the reported growth associated with C=C(C)[C@@H]1CC[C@]2(C(=O)O)CC[C@]3(C)[C@H](CC[C@@H]4[C@@]5(C)CCC(N)C(C)(C)[C@@H]5CC[C@]43C)[C@@H]12 (some centres undefined)
47.9

Fill in: growth of "CCN(CC)CC#CCOC(=O)[C@]1(C)CCC[C@]2(C)c3ccc(C(C)C)cc3CC[C@@H]12" is ___
87.5

Consider the compound shown here: "CCOC(=O)C1=C(C)N=C2SC=C(c3ccc(F)cc3)N2[C@H]1c1cn(-c2ccccc2)nc1-c1ccc(Cl)cc1" What is its recorded growth?
77.8

====

Test system: UACC-62 melanoma
Protocol summary: NCI-60 one-dose screen, 48 h (100 = growth as untreated, 0 = no growth, -100 = all killed)
Condition parameters: 10 µM unless noted
Compounds without any hit were thinned out: in the full panel of roughly 83,000, 20% have a hit. Active and inactive are the calls of the source. How the source made its calls: active means growth percent below 10; inactive means the rest.
Measurement label: growth

Could you share which growth value was measured for "O=C1CCc2c(sc3[nH]c(=S)n(Cc4ccc(Cl)cc4)c(=O)c23)C1" ?
0.777% (active)

Reported growth for CC(=O)N1N=C(c2ccc(Nc3nc(Nc4ccc(F)cc4)nc(Nc4ccc(Cl)cc4)n3)cc2)CC1c1ccc(N(C)C)cc1 (stereo not given) : what is it?
35.2% (inactive)

Entry "Nc1ccc(-c2nc3ccc4[nH]ncc4c3c3c2CCCC3)cc1F" : reported growth = ?
14.5% (inactive)

Fill in the blank: the reported growth of "O=C(Nc1ccc2ccccc2c1)c1cc2ccccc2cc1O" is ____.
72.5% (inactive)

Which growth is listed for "O=C(CN1C(=O)S/C(=C\C(Cl)=C\c2ccccc2)C1=O)NCCCn1ccnc1" ?
18.8% (inactive)

Quick one: growth for COc1cccc(NC(=O)c2sc3nc(C)c(C(O)c4ccccc4)cc3c2N)c1 (stereo not given) ?
32% (inactive)

Using the record for "Cc1nn(-c2nc(-c3cc4ccccc4oc3=O)cs2)c(C)c1N=Nc1ccccc1" , report its growth.
86.6% (inactive)

Item "C[N+]1=C(/C=C\C=C\c2ccccc2)C(C)(C)c2ccccc21" has what recorded growth?
-16.1% (active)

Can you look up the measured growth of "O=C1C(Nc2ccc(Cl)cc2)=C(I)C(=O)c2ncccc21" for me?
-7.27% (active)

growth for "CN1CCN(c2ccc(/C=C/C(=O)c3ccc(O)cc3)cc2)CC1" ?
92.7% (inactive)

====

Tested on: SK-MEL-28 melanoma
Protocol summary: NCI-60 one-dose screen, 48 h (100 = growth as untreated, 0 = no growth, -100 = all killed)
Condition parameters: 100 µM
About 83,000 compounds went through this panel and 20% of them were active in at least one assay; those are over-represented in the sample as a whole.
Measurement label: growth (%)
Answer with a number only, understood to be in %.

Form field: reported growth of "CC(=O)/C=C/c1ccc(N(CCO)Cc2ccc(C(C)(C)C)cc2)cc1"
-90.7

So what does the record say about growth for "CCN(Cc1ccccc1)c1ccc(/C=C2\COc3ccccc3C2=O)cc1" ?
53.1

Can you look up the measured growth of "COc1ccc(C(=O)/C=C/c2ccc(OCc3cccc(C(F)(F)F)c3)c(OC)c2)cc1OC" for me?
46.3

Recorded growth for "CC(=O)/C=C/c1ccc(OCc2ccc(Cl)cc2)cc1" , please?
26.1

Which growth value is on record for "CC(=O)/C=C/c1ccc(OCc2ccc(C(C)(C)C)cc2)cc1" ?
-1.32

Quick one: growth for "COc1ccc(C(=O)/C=C/c2ccc(OCc3ccc(Cl)cc3)cc2)cc1OC" ?
55.9

growth for "CC(=O)/C=C/c1ccc(N(C)Cc2ccc(C(C)(C)C)cc2)cc1" ?
-82.3

====

System: SN12C renal
Protocol summary: NCI-60 one-dose screen, 48 h (100 = growth as untreated, 0 = no growth, -100 = all killed)
Condition parameters: 10 µM unless noted
About 83,000 compounds went through this panel and 20% of them were active in at least one assay; those are over-represented in the sample as a whole.
Rule: measured growth below 70% gets T; anything equal to or greater than 70% gets F.

Threshold test, growth < 70%: "COc1ccc(/C=C/C(=O)c2cc3c(N)c(C(=O)Nc4ccccc4)sc3nc2C)cc1"
T

In plain terms, does Nc1ncnc2c1C(c1ccc([N+](=O)[O-])cc1)c1sc3c(F)cccc3c1O2 (stereo not given) come in under 70% for growth?
F

Criterion: growth strictly below 70%. Is it met by "O=C(Nc1ccc2ncsc2c1)c1csc(Nc2ccc3[nH]ncc3c2)n1" ?
T

Does this compound meet the criterion growth < 70%? "Cn1cc(-c2nc3c(F)cc4[nH]ncc4c3c3c2CCCC3)c(C(F)F)n1"
T

Decide: growth of COc1cccc(NC(=O)c2sc3nc(C)c(C(O)c4ccccc4)cc3c2N)c1 (stereo not given) strictly below 70%?
T

Strictly below 70%: is that where growth of "Cn1cc(-c2nonc2-c2cn(C)c3ccc(Br)cc23)c2ccccc21" sits?
T

In the record for "Cc1ccc(-c2nc3nc(-c4ccccc4)nc(N4CCCNCC4)c3o2)cc1" , is growth less than 70%?
T

Criterion: growth strictly below 70%. Is it met by "Nc1ccc(-c2nc3ccc4[nH]ncc4c3c3c2CCCC3)cc1F" ?
T

Check if growth falls below 70% for "CCCCSc1ccc2nc(-c3ccc(OCCCN=C(N)N)cc3)cn2c1" .
F

Confirm or reject: growth of "O=C1C(c2c[nH]c3ccccc23)=C(c2coc3cc(Br)ccc23)C(=O)N1O" lies strictly below 70%
F

Source: PubChem BioAssay (NCI)
